Please respond with reported Y1 Cells IC50 for every item in the list.
TESTED_TARGET: T1, human ACTH 1-39 (human)
T1 peptide: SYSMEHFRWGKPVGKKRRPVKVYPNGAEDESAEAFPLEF
ASSAY_PROTOCOL: cell-based or functional assay
Please give a number only; it is taken to be in nM.

response.value for Ab7 (antibody, human IgG1, kappa, N297A, V domains shown, rabbit/human chimeric antibody, made in HEK-293) VH: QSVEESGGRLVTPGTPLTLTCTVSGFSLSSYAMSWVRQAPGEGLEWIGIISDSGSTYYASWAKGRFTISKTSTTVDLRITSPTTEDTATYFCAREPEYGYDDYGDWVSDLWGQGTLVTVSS VL: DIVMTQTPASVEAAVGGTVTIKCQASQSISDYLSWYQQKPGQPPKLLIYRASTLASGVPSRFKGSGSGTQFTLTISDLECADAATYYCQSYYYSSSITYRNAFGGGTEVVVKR (field: Y1 Cells IC50) = 2.49

Measured Y1 Cells IC50 of Ab6 (antibody, human IgG1, kappa, N297A, V domains shown, rabbit/human chimeric antibody, made in HEK-293) VH: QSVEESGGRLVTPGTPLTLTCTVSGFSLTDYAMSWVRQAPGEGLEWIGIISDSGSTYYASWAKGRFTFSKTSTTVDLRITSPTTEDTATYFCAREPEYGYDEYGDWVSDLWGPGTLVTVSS VL: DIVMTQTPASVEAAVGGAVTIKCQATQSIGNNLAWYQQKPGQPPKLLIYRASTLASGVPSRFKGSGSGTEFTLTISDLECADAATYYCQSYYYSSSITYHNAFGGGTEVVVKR : 1.44

The recorded Y1 Cells IC50 for entry Ab4 (antibody, human IgG1, kappa, N297A, V domains shown, rabbit/human chimeric antibody, made in HEK-293) VH: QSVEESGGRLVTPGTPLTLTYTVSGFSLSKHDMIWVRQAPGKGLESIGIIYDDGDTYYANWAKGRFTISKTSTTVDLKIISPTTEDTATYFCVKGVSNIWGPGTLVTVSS VL: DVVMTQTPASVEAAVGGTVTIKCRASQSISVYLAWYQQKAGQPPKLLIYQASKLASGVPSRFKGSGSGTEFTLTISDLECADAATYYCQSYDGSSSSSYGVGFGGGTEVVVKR equals 17.2
